Target: CYP2B6 (Homo sapiens, UniProt P20813)
Sequence (P20813 whole entry): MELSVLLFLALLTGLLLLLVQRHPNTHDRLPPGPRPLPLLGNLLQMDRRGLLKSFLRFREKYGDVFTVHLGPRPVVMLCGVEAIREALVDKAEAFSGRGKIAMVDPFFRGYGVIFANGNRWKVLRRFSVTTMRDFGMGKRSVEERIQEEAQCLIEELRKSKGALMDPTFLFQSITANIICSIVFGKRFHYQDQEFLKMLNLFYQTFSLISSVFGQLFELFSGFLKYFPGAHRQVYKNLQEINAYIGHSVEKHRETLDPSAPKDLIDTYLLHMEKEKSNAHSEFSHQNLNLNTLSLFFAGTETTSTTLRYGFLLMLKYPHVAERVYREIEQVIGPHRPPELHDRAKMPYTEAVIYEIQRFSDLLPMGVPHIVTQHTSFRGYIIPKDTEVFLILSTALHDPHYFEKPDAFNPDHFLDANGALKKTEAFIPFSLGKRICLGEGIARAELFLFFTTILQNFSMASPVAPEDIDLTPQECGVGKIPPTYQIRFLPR
REPORTED PROPERTY: IC50

So what's the measured IC50 for this one? CC(O)c1ccc(CCOc2ccc(CC3SC(=O)NC3=O)cc2)nc1 (racemic) > 100 µM

====

Target: CYP3A4 (Homo sapiens, UniProt P08684)
Construct: in incubations with a pool of human liver microsomes; from tissue; host or cells: pooled human liver microsomes
Sequence (P08684 whole entry): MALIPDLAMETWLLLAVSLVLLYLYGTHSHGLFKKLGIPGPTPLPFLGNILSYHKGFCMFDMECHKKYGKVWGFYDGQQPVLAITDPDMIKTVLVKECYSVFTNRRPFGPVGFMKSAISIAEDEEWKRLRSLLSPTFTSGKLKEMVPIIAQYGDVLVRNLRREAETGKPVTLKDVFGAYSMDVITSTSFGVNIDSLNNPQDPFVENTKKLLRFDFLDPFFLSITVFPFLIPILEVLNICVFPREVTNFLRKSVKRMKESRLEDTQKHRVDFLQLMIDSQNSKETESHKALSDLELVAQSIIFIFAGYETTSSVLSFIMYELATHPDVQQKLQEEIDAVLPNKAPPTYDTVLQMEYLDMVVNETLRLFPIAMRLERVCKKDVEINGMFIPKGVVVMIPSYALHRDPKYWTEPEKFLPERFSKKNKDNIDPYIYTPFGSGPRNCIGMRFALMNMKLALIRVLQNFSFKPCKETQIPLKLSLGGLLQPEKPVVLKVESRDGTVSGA
Experiment: CYP inhibition, cocktail incubation, pooled human liver microsomes
Format: in vitro ADME
Conditions: reaction 6β-OH-TES
pIC50: −log10 of the molar value.
REPORTED PROPERTY: pIC50

Param item = CC(O)c1ccc(CCOc2ccc(CC3SC(=O)NC3=O)cc2)nc1 (racemic) ; retrieve measured pIC50. < 4.00
